Values were extracted from BindingDB's records for doi:10.1021/jm070556y.

# tested_on: Thyroid hormone receptor alpha [148-410] (Homo sapiens, UniProt P10827)
# Construct: 148-410
# Sequence (P10827 as listed by the source): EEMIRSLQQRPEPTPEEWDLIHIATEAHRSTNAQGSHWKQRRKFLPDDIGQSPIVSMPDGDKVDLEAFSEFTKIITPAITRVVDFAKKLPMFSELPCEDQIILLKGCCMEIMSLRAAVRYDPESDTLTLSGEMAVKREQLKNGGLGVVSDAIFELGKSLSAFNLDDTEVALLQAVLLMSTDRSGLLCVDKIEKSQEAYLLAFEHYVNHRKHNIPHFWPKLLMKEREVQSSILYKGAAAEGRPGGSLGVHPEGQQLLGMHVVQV
# procedure_text: Fluorescence Polarization (FP) Competition Assay
# experimental_parameters: pH 7.2; 22 °C
# Experimental: IC50 is the concentration of each compound required to inhibit 50% of the binding between the TR LBD and the SRC2-2 peptide using fluorescence polarization (FP) assay. The competition binding experiments were evaluated using PrismPad, and the IC50 values were obtained by fitting the data to an equation, Sigmoidal dose-response (variable slope) or four parameter logistic equation.
measured_attribute: IC50 (µM)

The cases that follow already have their IC50 on record.
In [3]: df
Out[3]:
                                   compound  value_unit  measured_value
0              C=CC(=O)Oc1ccc(C(C)(C)CC)cc1          µM            69.6
1  C=CC(=O)Oc1ccc(CCCC)cc1 [4-butylphenyl prop-2-enoate]          µM              71

(1) CCCCCCc1ccc(C(=O)/C=C/C(=O)O)cc1
(2) C=CC(=O)Oc1ccc(CCCCC)cc1 [4-pentylphenyl prop-2-enoate]
(3) CCCCCCc1ccc(C(=O)CCN2CCCC2)cc1
Highest IC50 first, then in falling order down to the smallest. Note for the reader: the ranking is given by listing the labels in the order requested.
2, 1, 3

====

# tested_on: Thyroid hormone receptor beta [209-461] (Homo sapiens)
# Sequence (P10828 whole entry): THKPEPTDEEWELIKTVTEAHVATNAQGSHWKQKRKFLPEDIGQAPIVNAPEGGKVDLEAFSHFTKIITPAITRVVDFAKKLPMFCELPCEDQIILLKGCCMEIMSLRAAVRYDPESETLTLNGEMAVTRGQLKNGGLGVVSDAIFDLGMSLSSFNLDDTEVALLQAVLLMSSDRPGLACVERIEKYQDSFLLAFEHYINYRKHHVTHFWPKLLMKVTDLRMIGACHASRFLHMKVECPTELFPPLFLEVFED
measured_attribute: IC50 (µM)

                                   compound  value_unit  measured_value
0  C=CC(=O)Oc1ccc(C(=O)OCCC)cc1 [propyl 4-(prop-2-enoyloxy)benzoate]          µM              61
1  C=CC(=O)Oc1ccc(CCC)cc1 [4-propylphenyl prop-2-enoate]          µM             100
2  C=CC(=O)Oc1ccc(CCCCCC)cc1 [4-hexylphenyl prop-2-enoate]          µM            18.6

(P) C=CC(=O)Oc1ccc(C(=O)OCCCCC)cc1 [pentyl 4-(prop-2-enoyloxy)benzoate]
(Q) C=CC(=O)Oc1ccc(CCCCC)cc1 [4-pentylphenyl prop-2-enoate]
Which has the higher IC50, P or Q ? Answer by quoting the chosen item's label.
P
(P: 55.8 µM, Q: 33.9 µM)

====

# tested_on: Thyroid hormone receptor alpha [148-410] (Homo sapiens)
# Construct: 148-410
# procedure_text: Fluorescence Polarization (FP) Competition Assay
measured_attribute: IC50 (µM)

Record excerpt, results attached:
In [3]: df
Out[3]:
                                   molecule  measured_attribute  measured_value
0  C=CC(=O)Oc1ccc(CCCCCCCC)cc1 [4-octylphenyl prop-2-enoate]                IC50            21.4
1  C=CC(=O)OC1CCC(C(C)(C)CC)CC1 (centres undefined)                IC50            75.6
2  C=CC(=O)Oc1ccccc1C(=O)OCCCCCC [hexyl 2-(prop-2-enoyloxy)benzoate]                IC50            39.1

(1) C=CC(=O)Oc1ccc2c(c1)CCCC2
(2) C=CC(=O)Oc1ccc(CCCCCC)cc1 [4-hexylphenyl prop-2-enoate]
(3) C=CC(=O)Oc1ccc(CCCCCCC)cc1 [4-heptylphenyl prop-2-enoate]
List by increasing IC50. I'd appreciate it if you listed the labels in the requested order.
3, 2, 1
(3: 23 µM, 2: 45.2 µM, 1: 85.3 µM)

====

# tested_on: Thyroid hormone receptor beta [209-461] (Homo sapiens, UniProt P10828)
# Sequence (P10828 whole entry): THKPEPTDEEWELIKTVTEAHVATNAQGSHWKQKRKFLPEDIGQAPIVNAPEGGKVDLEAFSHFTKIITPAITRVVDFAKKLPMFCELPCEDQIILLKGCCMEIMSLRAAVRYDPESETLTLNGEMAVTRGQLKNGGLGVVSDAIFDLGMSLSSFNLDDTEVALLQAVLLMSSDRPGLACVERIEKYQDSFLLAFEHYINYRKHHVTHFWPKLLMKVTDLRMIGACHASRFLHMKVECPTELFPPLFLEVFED
pIC50: −log10 of the molar value.
measured_attribute: pIC50

>>> df
                                   molecule  measured_value
0  C=CC(=O)Oc1ccccc1C(=O)OCCCCCC [hexyl 2-(prop-2-enoyloxy)benzoate]            5.09
1  C=CC(=O)Oc1ccc(CCCCCCCC)cc1 [4-octylphenyl prop-2-enoate]            4.94
2  C=CC(=O)Oc1ccc(NC(=O)CCC)cc1 [4-butanamidophenyl prop-2-enoate]            4.07

(I) C=CC(=O)Oc1ccc(CCCC)cc1 [4-butylphenyl prop-2-enoate]
(II) C=CC(=O)Oc1ccc(CCCCCCC)cc1 [4-heptylphenyl prop-2-enoate]
Two entries are listed, I and II . Which one carries the higher pIC50? Please indicate the selected item by its label.
II
(II: 4.98, I: 4.18)

====

Attribute: IC50
# tested_on: Thyroid hormone receptor alpha [148-410] (Homo sapiens, UniProt P10827)
# Construct: 148-410
# procedure_text: Fluorescence Polarization (FP) Competition Assay

>>> df
                                   compound  measured_value
0  C=CC(=O)Oc1ccc(C(=O)OCCCCC)cc1 [pentyl 4-(prop-2-enoyloxy)benzoate]        > 100 µM
1  C=CC(=O)Oc1ccc(NC(=O)CCC)cc1 [4-butanamidophenyl prop-2-enoate]        > 100 µM

The measured IC50 that C=CC(=O)Oc1ccc(C(=O)OCCC)cc1 [propyl 4-(prop-2-enoyloxy)benzoate] showed for Thyroid hormone receptor alpha [148-410] (Homo sapiens, UniProt P10827) is > 100 µM
